Reported Activity values are given for each entry in this list.
Biological target: Monoglyceride lipase (Homo sapiens) (UniProt Q99685)
Sequence (Q99685 whole entry): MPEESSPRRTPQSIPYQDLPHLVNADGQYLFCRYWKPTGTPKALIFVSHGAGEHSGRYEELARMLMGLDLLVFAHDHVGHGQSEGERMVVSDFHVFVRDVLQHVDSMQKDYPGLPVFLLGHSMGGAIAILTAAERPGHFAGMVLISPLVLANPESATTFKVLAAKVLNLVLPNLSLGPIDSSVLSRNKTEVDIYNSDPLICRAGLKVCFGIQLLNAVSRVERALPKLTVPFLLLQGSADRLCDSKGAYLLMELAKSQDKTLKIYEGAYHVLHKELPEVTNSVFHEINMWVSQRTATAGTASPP
Experiment: Inhibition of human recombinant MAGL assessed as remaining activity at 100 uM after 10 mins by spectrophotometry relative to control

{"Query smiles": "O=C(Nc1cccc(-c2ccccc2)c1)OC1CCC1", "Activity / %": 85}
{"Query smiles": "O=C(Nc1cccc(-c2ccccc2)c1)NC1CCCCCC1", "Activity / %": 55}
{"Query smiles": "O=C(Nc1cccc(-c2ccc(O)cc2)c1)OC1CCCCC1", "Activity / %": 26}
{"Query smiles": "O=C(Nc1cccc(-c2ccc(Cl)cc2)c1)OC1CCCCC1", "Activity / %": 81}
{"Query smiles": "O=C(Nc1cccc(-c2ccccc2)c1)OC1CCCCC1", "Activity / %": 73}
{"Query smiles": "O=C(Nc1cccc(-c2ccccc2)c1)NC1CCCCC1", "Activity / %": 78}

Measured values drawn from ChEMBL document CHEMBL1914306 for this set.
